Tested on: Eysarcoris
ASSAY EXPLANATION: Repellent activity against Eysarcoris ventralis assessed as reduction in number of bugs at 0.1 umol measured after 30 min
Assay type: functional
METRIC: Repellency (%)
Please reply with the bare figure in % and do not write the unit itself.

IN: System Eysarcoris. Read-out Repellency. Item "CCCC(=O)OCCCc1cocc1C" . Report value.
OUT: 51.8

IN: Enter measured Repellency, system Eysarcoris, for the compound shown: "c1ccc2ccccc2c1"
OUT: 44.6

IN: Give the observed Repellency of "CC(=O)OCCCc1cocc1C" for Eysarcoris.
OUT: 90.2

IN: State the measured Repellency (Eysarcoris) of "CCC(=O)OCCCc1cocc1C"
OUT: 58

IN: Fill in: Repellency on Eysarcoris, entry "Cc1cocc1CCCOC(=O)c1ccccc1"
OUT: 5.3

IN: Answer with Repellency of "Cc1cocc1CCCO" measured for Eysarcoris.
OUT: 5.7
